These records show pIC50 for UniProt O14965.
Sequence (O14965 whole entry): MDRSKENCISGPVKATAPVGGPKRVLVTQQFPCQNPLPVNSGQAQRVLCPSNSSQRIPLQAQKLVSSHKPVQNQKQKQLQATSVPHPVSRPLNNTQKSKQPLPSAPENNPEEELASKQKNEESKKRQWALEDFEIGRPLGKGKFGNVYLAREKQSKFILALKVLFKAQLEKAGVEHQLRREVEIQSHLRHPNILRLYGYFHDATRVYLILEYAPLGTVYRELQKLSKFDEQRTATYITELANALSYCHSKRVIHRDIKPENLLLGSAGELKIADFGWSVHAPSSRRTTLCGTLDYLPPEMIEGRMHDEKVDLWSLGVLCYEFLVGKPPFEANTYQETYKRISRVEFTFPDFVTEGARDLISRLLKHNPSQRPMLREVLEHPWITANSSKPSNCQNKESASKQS
pIC50: −log10 of the molar value.

Here is how some compounds turned out for pIC50.
| STRUCTURE_SMILES | pIC50 |
| --- | --- |
| CCS(=O)(=O)c1cccc(-c2nc(Nc3cc(C)[nH]n3)c3cscc3n2)c1 | ≥ 7.30 |
| CCS(=O)(=O)n1ccc2ccc(-c3nc(Nc4cc(C)[nH]n4)c4cc(C)sc4n3)cc21 | ≥ 7.30 |

Let us move to another entry and its pIC50.
Request: Lookup: pIC50 / UniProt O14965 / `CCS(=O)(=O)c1cccc(-c2nc(Nc3cc(C)[nH]n3)c3cc(C)sc3n2)c1`
Response: ≥ 7.30
